- SYSTEM_UNDER_TEST: Tyrosine-protein kinase JAK2 (Homo sapiens, UniProt O60674)
- Sequence (O60674 whole entry): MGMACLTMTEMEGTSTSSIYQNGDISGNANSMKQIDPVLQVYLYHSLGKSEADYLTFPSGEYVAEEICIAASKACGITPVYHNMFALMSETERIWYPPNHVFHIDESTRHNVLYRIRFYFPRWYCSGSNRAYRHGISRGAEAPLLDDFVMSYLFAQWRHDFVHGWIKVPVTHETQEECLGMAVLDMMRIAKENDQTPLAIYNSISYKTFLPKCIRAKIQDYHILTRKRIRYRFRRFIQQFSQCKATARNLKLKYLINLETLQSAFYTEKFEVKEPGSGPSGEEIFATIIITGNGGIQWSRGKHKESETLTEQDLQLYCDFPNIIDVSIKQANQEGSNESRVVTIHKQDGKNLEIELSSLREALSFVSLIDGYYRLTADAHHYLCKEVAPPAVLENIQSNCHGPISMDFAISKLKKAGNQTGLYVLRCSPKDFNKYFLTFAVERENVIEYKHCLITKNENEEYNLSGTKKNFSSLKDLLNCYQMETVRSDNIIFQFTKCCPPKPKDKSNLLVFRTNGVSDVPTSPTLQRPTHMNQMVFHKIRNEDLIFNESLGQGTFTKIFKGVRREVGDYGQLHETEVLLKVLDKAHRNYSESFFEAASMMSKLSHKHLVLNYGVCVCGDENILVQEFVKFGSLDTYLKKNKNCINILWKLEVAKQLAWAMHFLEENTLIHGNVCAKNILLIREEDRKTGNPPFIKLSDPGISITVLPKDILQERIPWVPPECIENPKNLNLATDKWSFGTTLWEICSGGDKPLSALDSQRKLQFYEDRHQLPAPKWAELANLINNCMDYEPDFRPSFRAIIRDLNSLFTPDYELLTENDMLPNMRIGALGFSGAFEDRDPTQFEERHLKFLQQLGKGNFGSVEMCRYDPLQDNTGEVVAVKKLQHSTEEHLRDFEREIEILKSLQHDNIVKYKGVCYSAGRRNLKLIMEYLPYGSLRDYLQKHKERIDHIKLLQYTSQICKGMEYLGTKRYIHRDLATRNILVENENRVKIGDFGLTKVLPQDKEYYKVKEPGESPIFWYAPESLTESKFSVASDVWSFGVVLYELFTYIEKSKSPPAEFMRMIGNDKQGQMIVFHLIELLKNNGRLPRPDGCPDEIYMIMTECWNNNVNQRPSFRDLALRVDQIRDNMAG
pIC50: −log10 of the molar value.

{"COMPOUND": "CC[C@@](C)(Nc1ccnc(-c2c[nH]c3ncccc23)n1)C(=O)NCC(F)(F)F [DECERNOTINIB]", "pIC50": 7.62}

====

- SYSTEM_UNDER_TEST: Tyrosine-protein kinase JAK1 (Homo sapiens, UniProt P23458)
- Sequence (P23458 whole entry): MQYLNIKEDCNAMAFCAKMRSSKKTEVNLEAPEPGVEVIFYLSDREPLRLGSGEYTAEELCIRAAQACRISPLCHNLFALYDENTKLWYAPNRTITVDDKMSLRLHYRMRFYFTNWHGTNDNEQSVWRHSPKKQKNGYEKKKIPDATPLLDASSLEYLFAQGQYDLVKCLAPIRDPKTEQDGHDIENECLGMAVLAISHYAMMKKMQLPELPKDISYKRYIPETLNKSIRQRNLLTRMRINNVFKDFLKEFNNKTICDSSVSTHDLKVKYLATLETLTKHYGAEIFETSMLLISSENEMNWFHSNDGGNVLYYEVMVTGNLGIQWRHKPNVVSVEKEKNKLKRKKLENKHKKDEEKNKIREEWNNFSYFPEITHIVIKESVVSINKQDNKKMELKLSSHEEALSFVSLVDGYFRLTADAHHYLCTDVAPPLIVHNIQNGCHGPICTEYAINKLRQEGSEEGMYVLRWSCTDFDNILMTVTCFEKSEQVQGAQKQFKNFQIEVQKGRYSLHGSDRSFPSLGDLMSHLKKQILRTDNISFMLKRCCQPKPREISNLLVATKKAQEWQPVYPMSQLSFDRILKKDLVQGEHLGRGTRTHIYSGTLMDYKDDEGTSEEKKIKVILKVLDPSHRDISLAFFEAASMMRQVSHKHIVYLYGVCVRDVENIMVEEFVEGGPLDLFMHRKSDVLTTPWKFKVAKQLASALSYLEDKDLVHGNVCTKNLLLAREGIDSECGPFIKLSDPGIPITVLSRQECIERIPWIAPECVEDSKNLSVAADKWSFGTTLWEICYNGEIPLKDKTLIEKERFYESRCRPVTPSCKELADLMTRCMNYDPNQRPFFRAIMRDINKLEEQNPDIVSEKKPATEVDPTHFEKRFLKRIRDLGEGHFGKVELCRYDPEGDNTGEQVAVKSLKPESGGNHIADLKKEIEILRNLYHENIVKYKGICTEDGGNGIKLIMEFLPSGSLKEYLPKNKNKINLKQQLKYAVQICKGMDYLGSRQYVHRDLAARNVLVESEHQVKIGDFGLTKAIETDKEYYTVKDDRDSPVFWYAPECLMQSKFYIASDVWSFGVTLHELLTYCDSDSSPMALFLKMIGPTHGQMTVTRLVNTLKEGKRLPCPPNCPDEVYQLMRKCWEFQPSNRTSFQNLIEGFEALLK
PROPERTY: IC50 (nM)

{"COMPOUND": "CC[C@@](C)(Nc1ccnc(-c2c[nH]c3ncccc23)n1)C(=O)NCC(F)(F)F [DECERNOTINIB]", "SYSTEM_UNDER_TEST": "Tyrosine-protein kinase JAK1 (Homo sapiens, UniProt P23458)", "EXPERIMENTAL_VALUE": 13.2}
